system.tested: EGFR (form used in the assay not stated) (human, UniProt P00533 25-645, limits assumed)
procedure.summary: ELISA, NEM conjugate, 10 nM

>  <binder>
P54AR4-83v2 L88C, NEM conjugate (designed binder, not shown: small tags and cut ends, N-ethyl maleimide (NEM) on Cys 88) LPAPKNLVVSEVTEDSARLSWDDPWAFYESFLIQYQESEKVGEAIVLTVPGSERSYDLTGLKPGTEYTVSIYGVHNVYKDTNMRGLPCSAIFTT

>  <binding relative to P54AR4-83v2 parent / ratio>
0.95

$$$$
>  <binder>
P54AR4-83v2 I91C, NEM conjugate (designed binder, not shown: small tags and cut ends, N-ethyl maleimide (NEM) on Cys 91) LPAPKNLVVSEVTEDSARLSWDDPWAFYESFLIQYQESEKVGEAIVLTVPGSERSYDLTGLKPGTEYTVSIYGVHNVYKDTNMRGLPLSACFTT

>  <binding relative to P54AR4-83v2 parent / ratio>
0.9

$$$$
>  <binder>
P54AR4-83v2 T59C, NEM conjugate (designed binder, not shown: small tags and cut ends, N-ethyl maleimide (NEM) on Cys 59) LPAPKNLVVSEVTEDSARLSWDDPWAFYESFLIQYQESEKVGEAIVLTVPGSERSYDLCGLKPGTEYTVSIYGVHNVYKDTNMRGLPLSAIFTT

>  <binding relative to P54AR4-83v2 parent / ratio>
0.83

$$$$
>  <binder>
P54AR4-83v2 S30C, NEM conjugate (designed binder, not shown: small tags and cut ends, N-ethyl maleimide (NEM) on Cys 30, also called 530C) LPAPKNLVVSEVTEDSARLSWDDPWAFYECFLIQYQESEKVGEAIVLTVPGSERSYDLTGLKPGTEYTVSIYGVHNVYKDTNMRGLPLSAIFTT

>  <binding relative to P54AR4-83v2 parent / ratio>
0.9

$$$$
>  <binder>
P54AR4-83v2 V8C, NEM conjugate (designed binder, not shown: small tags and cut ends, N-ethyl maleimide (NEM) on Cys 8) LPAPKNLCVSEVTEDSARLSWDDPWAFYESFLIQYQESEKVGEAIVLTVPGSERSYDLTGLKPGTEYTVSIYGVHNVYKDTNMRGLPLSAIFTT

>  <binding relative to P54AR4-83v2 parent / ratio>
0.96

$$$$
>  <binder>
P54AR4-83v2 K79C, NEM conjugate (designed binder, not shown: small tags and cut ends, N-ethyl maleimide (NEM) on Cys 79) LPAPKNLVVSEVTEDSARLSWDDPWAFYESFLIQYQESEKVGEAIVLTVPGSERSYDLTGLKPGTEYTVSIYGVHNVYCDTNMRGLPLSAIFTT

>  <binding relative to P54AR4-83v2 parent / ratio>
0.9

$$$$

Ref: patent US20210301025A1
